experiment: in vivo; design: species or system mice; conditions: female, BALB/c nude, mouse, iv, 20 pmol, total radioactivity, Tumor-to-blood ratio
measurement_type: tissue to tissue ratio at 1 h

CCCC[C@@H](C(=O)N[C@@H](CC(=O)O)C(=O)N[C@@H](Cc1cccc2ccccc12)C(N)=O)N(C)C(=O)[C@H](Cc1c[nH]c2ccccc12)NC(=O)CCNC(=O)CC(O)CNC(=O)CC(O)CNC(=O)CN1CCN(CC(=O)O)CCN(CC(=O)O)CCN(CC(=O)O)CC1 (stereo partly shown) [[^177Lu]Lu-2, metal not drawn] ... 38.9

----------
assay: in vivo; set-up: species or system mice; settings: female, BALB/c nude, mouse, iv, 20 pmol, total radioactivity, uptake in blood
measurement_type: tissue uptake at 1 h (%ID/g)

CCCC[C@@H](C(=O)N[C@@H](CC(=O)O)C(=O)N[C@@H](Cc1cccc2ccccc12)C(N)=O)N(C)C(=O)[C@H](Cc1c[nH]c2ccccc12)NC(=O)CCNC(=O)CC(O)CNC(=O)CC(O)CNC(=O)CN1CCN(CC(=O)O)CCN(CC(=O)O)CCN(CC(=O)O)CC1 (stereo partly shown) [[^177Lu]Lu-2, metal not drawn] ... 1.45
